- TESTED ON: UniProtKB Q9NS86
- Sequence (Q9NS86 whole entry, species assumed): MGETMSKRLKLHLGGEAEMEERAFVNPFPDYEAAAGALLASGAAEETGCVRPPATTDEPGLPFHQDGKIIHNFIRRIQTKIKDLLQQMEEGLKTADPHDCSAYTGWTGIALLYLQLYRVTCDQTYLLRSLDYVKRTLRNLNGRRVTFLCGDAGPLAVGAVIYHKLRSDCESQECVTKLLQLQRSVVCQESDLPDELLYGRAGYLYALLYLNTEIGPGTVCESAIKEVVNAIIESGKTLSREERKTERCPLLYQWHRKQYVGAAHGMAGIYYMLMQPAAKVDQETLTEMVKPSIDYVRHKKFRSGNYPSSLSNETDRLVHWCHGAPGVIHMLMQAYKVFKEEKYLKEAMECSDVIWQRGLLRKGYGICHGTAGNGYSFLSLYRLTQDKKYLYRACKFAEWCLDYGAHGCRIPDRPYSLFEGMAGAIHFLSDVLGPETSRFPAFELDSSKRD
RECORDED ENDPOINT: Kd
Param answer (str): number followed by unit.

Exercise: Requested read-out Kd, target or system UniProtKB Q9NS86, entry O=C(CN1CCN(C(=O)c2cccc(-c3nc4ccccc4[nH]3)n2)CC1)c1ccccc1 [BT-63]
Solution: 2740 nM
